biological target: Recombinant ROCK1 (Homo sapiens (Human), UniProt Q13464); test: Lance Ultra Kinase Assay, ROCK1 inhibition; conditions: ATP at Km, 30 min pre-incubation, 1 h reaction
Sequence (Q13464 whole entry): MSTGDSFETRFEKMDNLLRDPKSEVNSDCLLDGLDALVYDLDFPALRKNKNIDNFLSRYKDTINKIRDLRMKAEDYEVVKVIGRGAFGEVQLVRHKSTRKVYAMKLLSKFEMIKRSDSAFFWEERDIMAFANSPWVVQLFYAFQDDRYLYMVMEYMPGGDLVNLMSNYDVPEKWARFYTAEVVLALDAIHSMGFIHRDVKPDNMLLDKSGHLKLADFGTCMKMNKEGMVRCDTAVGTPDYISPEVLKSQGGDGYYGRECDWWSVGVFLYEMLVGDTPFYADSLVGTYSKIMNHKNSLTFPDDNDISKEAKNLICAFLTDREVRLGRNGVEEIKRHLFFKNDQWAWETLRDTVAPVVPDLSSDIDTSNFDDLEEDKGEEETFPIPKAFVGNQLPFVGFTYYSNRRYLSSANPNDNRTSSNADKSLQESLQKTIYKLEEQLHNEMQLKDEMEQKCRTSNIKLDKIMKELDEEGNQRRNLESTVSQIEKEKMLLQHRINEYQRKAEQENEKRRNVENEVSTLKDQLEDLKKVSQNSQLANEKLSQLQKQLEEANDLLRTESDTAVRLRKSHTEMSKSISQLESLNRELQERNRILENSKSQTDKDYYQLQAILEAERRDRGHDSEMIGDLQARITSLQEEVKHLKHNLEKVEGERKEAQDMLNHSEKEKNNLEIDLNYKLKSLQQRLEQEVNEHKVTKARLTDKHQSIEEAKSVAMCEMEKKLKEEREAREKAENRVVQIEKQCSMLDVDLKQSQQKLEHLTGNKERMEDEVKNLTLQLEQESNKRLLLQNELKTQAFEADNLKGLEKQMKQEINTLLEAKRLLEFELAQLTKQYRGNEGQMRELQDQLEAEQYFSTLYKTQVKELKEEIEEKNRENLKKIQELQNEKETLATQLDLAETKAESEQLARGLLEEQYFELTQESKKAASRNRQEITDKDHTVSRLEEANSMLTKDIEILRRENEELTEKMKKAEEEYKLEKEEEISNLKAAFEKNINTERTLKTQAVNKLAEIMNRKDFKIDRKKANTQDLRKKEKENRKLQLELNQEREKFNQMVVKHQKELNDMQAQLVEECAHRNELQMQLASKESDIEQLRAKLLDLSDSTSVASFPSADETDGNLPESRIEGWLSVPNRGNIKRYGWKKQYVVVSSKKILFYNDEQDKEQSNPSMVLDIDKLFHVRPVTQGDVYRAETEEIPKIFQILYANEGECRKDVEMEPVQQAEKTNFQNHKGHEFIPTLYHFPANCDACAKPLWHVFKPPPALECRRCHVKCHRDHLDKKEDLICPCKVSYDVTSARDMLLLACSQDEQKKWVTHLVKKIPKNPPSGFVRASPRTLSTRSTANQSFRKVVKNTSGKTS
experimental.endpoint: IC50 (nM)

- molecule: "COC[C@H](C(=O)Nc1cccc2c(-c3cn[nH]c3)c[nH]c12)N1CCN(C)CC1 [Example 121]"
  tested.system: "Recombinant ROCK1 (Homo sapiens (Human), UniProt Q13464)"
  reported: 75
- molecule: "CNC(=O)OCc1cccc(C(CN)C(=O)Nc2cccc3c(-c4cn[nH]c4)c[nH]c23)c1 (racemic) [Example 49]"
  tested.system: "Recombinant ROCK1 (Homo sapiens (Human), UniProt Q13464)"
  reported: 0.86
- molecule: "NC[C@@H](C(=O)Nc1cccc2c(-c3cn[nH]c3)c[nH]c12)c1ccccc1 [Example 15]"
  tested.system: "Recombinant ROCK1 (Homo sapiens (Human), UniProt Q13464)"
  reported: 1.4

1 = NCC(Cc1ccccc1)C(=O)Nc1cccc2c(-c3cn[nH]c3)c[nH]c12 (racemic) [Example 52]
2 = NCC(C(=O)Nc1cccc2c(-c3cn[nH]c3)c[nH]c12)c1cccc(C(=O)O)c1 (racemic) [Example 70]
3 = NCC(C(=O)Nc1cccc2c(-c3cn[nH]c3)c[nH]c12)c1ccc(CO)cc1 (racemic) [Example 1]
Hello, I need these entries ordered by IC50, highest reading first. Thanks! Answer by naming the labels in the order asked.
2, 1, 3

A = NC[C@@H](Cc1ccccc1)C(=O)Nc1cccc2c(-c3cn[nH]c3)c[nH]c12 [Example 53]
B = NC[C@H](Cc1ccccc1)C(=O)Nc1cccc2c(-c3cn[nH]c3)c[nH]c12 [Example 54]
Could you point out whether the larger IC50 belongs to A or to B ? Indicate which entry you chose by stating its label.
A
